Hey, just so you know, these numbers are from ChEMBL document CHEMBL5325417.

Here, each record is paired with measured IC50 data.
- Assay Summary: Inhibition of PP6 (unknown origin) phosphatase domain
- Set-up: species or system Homo sapiens
Form entry: value (µM) — number only.

>  <Entry Smiles>
C[C@@]12C(=O)OC(=O)[C@]1(C)[C@H]1CC[C@@H]2O1

>  <Metric>
IC50

>  <Unit Of Measurement>
µM

>  <Measured Value>
8

$$$$

Request: Requested read-out: IC50. Entry: C[C@@](O)(/C=C/[C@H]1CC=CC(=O)O1)[C@@H](C[C@@H](O)\C=C/C=C\C=C\CO)OP(=O)(O)O
Result: 0.01

----------
- Measured On: Serine/threonine-protein phosphatase 5 (Homo sapiens, UniProt P53041)
- Sequence (P53041 whole entry): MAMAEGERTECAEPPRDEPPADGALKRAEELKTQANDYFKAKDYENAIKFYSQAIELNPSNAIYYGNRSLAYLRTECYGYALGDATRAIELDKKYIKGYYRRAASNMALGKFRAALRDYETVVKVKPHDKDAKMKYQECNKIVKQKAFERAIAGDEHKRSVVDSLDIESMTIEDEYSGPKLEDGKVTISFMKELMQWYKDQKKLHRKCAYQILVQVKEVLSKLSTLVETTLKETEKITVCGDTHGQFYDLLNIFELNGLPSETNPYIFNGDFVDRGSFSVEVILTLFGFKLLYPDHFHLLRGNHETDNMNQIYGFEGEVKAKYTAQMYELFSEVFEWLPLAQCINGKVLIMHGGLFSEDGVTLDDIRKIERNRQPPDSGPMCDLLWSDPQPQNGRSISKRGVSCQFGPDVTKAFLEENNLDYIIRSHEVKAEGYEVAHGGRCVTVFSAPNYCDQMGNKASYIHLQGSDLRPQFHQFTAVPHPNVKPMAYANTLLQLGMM
- Assay Summary: Inhibition of MBP fused recombinant human PPP5C phosphatase domain expressed in Escherichia coli using DiFMUP as substrate
Metric: pIC50
// pIC50: -log10(molar conc.)

Request: Requested read-out: pIC50. Entry: CN1CCN(C(=O)[C@H]2[C@@H](C(=O)O)[C@@H]3CC[C@H]2O3)CC1
Result: 5.74

----------
Here, each record is paired with measured EC50 data.
- Measured On: Serine/threonine-protein phosphatase 5 (Homo sapiens, UniProt P53041)
- Assay Summary: Activation of PPP5C (unknown origin) TPR domain
Form entry: value (µM) — number only.

>  <Compound>
CC(C)(COP(=O)(O)OP(=O)(O)OC[C@H]1O[C@@H](n2cnc3c(N)ncnc32)[C@H](O)[C@@H]1OP(=O)(O)O)[C@@H](O)C(=O)NCCC(=O)NCCS [COENZYME_A]

>  <Measured On>
Serine/threonine-protein phosphatase 5 (Homo sapiens, UniProt P53041)

>  <Metric>
EC50

>  <Measured Value>
1

$$$$

Switching to the query record.
Request: Requested read-out: EC50. Entry: O=C(O)CCCCCCCCCCCC[C@H]1C=CCC1
Result: 134

----------
- Assay Summary: Inhibition of PP3 (unknown origin) phosphatase domain
- Parameters: species or system Homo sapiens
pIC50: −log10 of the molar value. Starred links: 1 amine or outer side, 2 acyl side, 3 side chain; linkers in the order of their positions; H or OH if unused. Positions of bridges follow the written chain, without caps; N, C: chain ends. Non-standard residues stand in square brackets, D forms with d. Residues, ends and D or L forms follow the SMILES beside them. Adda = CO[C@@H](Cc1ccccc1)[C@@H](C)/C=C(C)/C=C/[C@H](N[*:1])[C@H](C)C(=O)[*:2]; dAsp(3S-Me) = C[C@H](C(=O)[*:3])[C@@H](N[*:1])C(=O)[*:2]; d(γGlu) = O=C(O)[C@@H](CCC(=O)[*:2])N[*:1]; NMeDha = C=C(NC)C(=O)O
Here, each record is paired with measured pIC50 data.

>  <Compound>
C=C1C(=O)N[C@H](C)C(=O)N[C@@H](CC(C)C)C(=O)N[C@@H](C(=O)O)[C@H](C)C(=O)N[C@@H](CCCNC(=N)N)C(=O)N[C@@H](/C=C/C(C)=C/[C@H](C)[C@H](Cc2ccccc2)OC)[C@H](C)C(=O)N[C@@H](C(=O)O)CCC(=O)N1C [MICROCYSTIN-LR] (R[Adda][d(γGlu)][NMeDha][dA]L[dAsp(3S-Me)]-OH; lactam N-7)

>  <Measured Value>
6.70

$$$$
>  <Compound>
C[C@@](O)(/C=C/[C@H]1CC=CC(=O)O1)[C@@H](C[C@@H](O)\C=C/C=C\C=C\CO)OP(=O)(O)O [FOSTRIECIN]

>  <Measured Value>
< 4.00

$$$$

Switching to the query record.
Request: Requested read-out: pIC50. Entry: C[C@@]12C(=O)OC(=O)[C@]1(C)[C@H]1CC[C@@H]2O1 [CANTHARIDIN]
Result: < 3.30
